# TGI listing for each entry below
# System: MDA-MB-231 breast
# assay explanation: NCI tumour cell line growth inhibition, 48 h

For orientation, consider the following solved cases.
molecule	result
N#C/C(=C/n1c(=S)[nH]c2ccc([N+](=O)[O-])cc21)C(N)=O	> 100 µM
NC(N)=NCCC1OC(=O)C2=C1c1c(O)ccc3nccc(c13)O2 (stereo unspecified)	> 100 µM
COc1ccc2nc(/C(N)=C\C#N)ccc2c1	> 100 µM
Nc1ccc(C(=O)CC(N)C(=O)O)cc1O (stereo unspecified)	> 100 µM

[ask] What reported TGI corresponds to c1ccc2c(c1)Sc1nccc3ccnc-2c13 on MDA-MB-231 breast?
[reply] > 100 µM

[ask] I'm curious: which TGI was measured for CCC(CO)Nc1nc(NCc2ccccc2)c2ncn(C(C)C)c2n1 (stereo unspecified) tested on MDA-MB-231 breast?
[reply] > 94.5 µM

====

# Tested on: UACC-257 melanoma
# assay explanation: NCI tumour cell line growth inhibition, 48 h
Entries and their TGI values follow.

molecule	TGI
CN(C)CCNC(=O)c1cc(Cl)cc2ccc(-c3ccccc3)nc12	10.8 µM
C=C1C(OC2O[C@@H]3O[C@@]4(C)CC[C@H]5[C@H](C)CC[C@@H](C2=C)[C@@]35O4)O[C@@H]2O[C@@]3(C)CC[C@H]4[C@H](C)CC[C@@H]1[C@@]24O3 (some centres undefined)	> 50 µM
COc1ccc2c(c1)/C(=C\c1c(Cl)[nH]c3ccc(OC)cc13)C(=O)N2	> 100 µM
O=S(=O)(c1cc(Cl)ccc1Cl)n1ccnc1	> 100 µM

[ask] // query TGI value for entry O=c1nc2c(c(-c3ccc(Br)cc3)[nH]1)COC/C2=C\c1ccc(Br)cc1
[reply] > 50 µM

[ask] What value of TGI has been recorded for this entry: COC(=O)C1C(C(=O)OC)C2(OC(c3ccc(Cl)cc3)=CC2=O)C12OC(c1ccc(Cl)cc1)=CC2=O (centres undefined)
[reply] 48.8 µM

[ask] Which TGI value is on record for CCCCC1=C(C(=O)N2CCOCC2)C2(OCCO2)C1=O ?
[reply] 89.9 µM

[ask] What does the data say about its TGI? Entry: CCOP(=O)(OCC)OC(C#N)c1ccc(-c2ccccc2)cc1 (centres undefined)
[reply] 36.8 µM

[ask] Name the reported TGI value associated with the molecule O=C(CCc1cc(O)cc(O)c1)NCCCNC(=O)CCc1cc(O)cc(O)c1
[reply] > 100 µM

[ask] Name the recorded TGI for CS(=O)(=O)CSCSSCS(C)(=O)=O .
[reply] > 100 µM

[ask] Name the recorded TGI for CCN(CC)C(=S)Oc1cc2oc(=O)cc(C)c2cc1Cl .
[reply] > 100 µM

====

Form field: TGI (one value per entry).
# Test system: KM12 colon
# assay explanation: NCI tumour cell line growth inhibition, 48 h
Give your result in µM as a bare value.

[ask] Under KM12 colon: TGI value of CCOc1cc(/C=N\Nc2nnc(C)n2N)c(C)cc1N(CCCl)CCCl ?
[reply] 19.9

[ask] Record lookup: for KM12 colon, what TGI belongs to CSc1nc(NC(C)C)c2c(n1)Sc1nc3ccccc3n1N=C2 ?
[reply] 60.9

[ask] Checklist item: TGI tested on KM12 colon, entry COc1cc2cc(C(=O)N3C[C@H](CCl)c4c3cc(N)c3ccccc43)[nH]c2c(OC)c1OC , value?
[reply] 0.0922

[ask] For KM12 colon, provide TGI of Cc1sc2nc3c4ccccc4c(NCCCN(C)C)nn3c(=O)c2c1C please.
[reply] 17.7

[ask] Short answer please: TGI, KM12 colon, entry COc1ccc2c(c1)/C(=C\c1c(Cl)[nH]c3ccc(OC)cc13)C(=O)N2
[reply] 34.9

[ask] Give recorded TGI with KM12 colon for the following compound: COc1ccccc1/C=C/C(=O)c1ccccc1
[reply] 14.3

====

Recorded TGI, one value per entry.
# Test system: OVCAR-5 ovarian
# assay explanation: NCI tumour cell line growth inhibition, 48 h

A selection of reference data follows.
compound	TGI
COc1ccc(-c2oc3c(OC)c(OC)c(OC)c(OC)c3c(=O)c2OC)cc1OC	> 100 µM
CC(C)C(CC(=O)OCC(CO)OC(=O)CC(C(C)C)C(C)C)C(C)C (stereo not drawn)	26.1 µM

Then this compound:
[ask] Report TGI for COC(=O)[C@@H]1CCCCC[C@H]2C(CO)=C(C)C(=O)C12 (stereo partly drawn) please.
[reply] > 100 µM

====

# Test system: SW-620 colon
# assay explanation: NCI tumour cell line growth inhibition, 48 h
result type: TGI

compound	result
O=C(CCc1cc(O)cc(O)c1)NCCCNC(=O)CCc1cc(O)cc(O)c1	> 100 µM
Nc1ccccc1C#C/C=C\C#Cc1ccccc1[N+](=O)[O-]	88.8 µM
O=C(O)c1cccc2cccc(-c3cccc4cccc(C(=O)O)c34)c12	> 100 µM
COC(=O)Cc1ccc2c(cnn2-c2ccccc2)c1OC	> 10 µM
OC1(c2ccccc2)OC(C#Cc2ccccc2)(c2ccccc2)c2ccccc21 (stereo unspecified)	15.4 µM

Below: the item to evaluate.
[ask] Quick check: TGI of O=S(=O)(c1cc(Cl)ccc1Cl)n1ccnc1 ?
[reply] > 100 µM

====

# System: SNB-75 CNS
# assay explanation: NCI tumour cell line growth inhibition, 48 h
result type: TGI (µM)
I only need the number, in µM, no unit after it.

# example entries with known answers
molecule	TGI, µM
OC1(c2ccccc2)OC(C#Cc2ccccc2)(c2ccccc2)c2ccccc21 (centres undefined)	20.4
COc1ccc(/C=c2\s/c(=C3/SC(=S)N(c4ccccc4)C3=O)n(-c3ccccc3)c2=O)cc1	21.4

[ask] Quick one: TGI of CCOc1ccc(Nc2nc(N)nc(N)c2N)cc1 ?
[reply] 70.5

====

# Tested on: NCI-H460 lung
# assay explanation: NCI tumour cell line growth inhibition, 48 h
Reported TGI is given for each of the following compounds.
Field: numeric (µM). Do not append units.

Some solved cases for reference:
compound	result type	numeric result
N#CCCN(CCC#N)c1ccc(C(Sc2ccccc2)C(NC(=O)c2cc([N+](=O)[O-])ccc2Cl)C(=O)Sc2ccccc2)cc1 (stereo not given)	TGI	16.8
CCn1c2ccc(C(=O)CCCN3CCCCC3)cc2c2cc(C(=O)CCCN3CCCCC3)ccc21	TGI	3.12
Cc1sc2nc3c4ccccc4c(NCCCN(C)C)nn3c(=O)c2c1C	TGI	5.35
CCOc1ccc(Nc2nc(N)nc(N)c2N)cc1	TGI	98
C/C(Cl)=N\OC(=O)Nc1ccc(C)cc1	TGI	33.4
COc1cc2cc(C(=O)N3C[C@H](CCl)c4c3cc(N)c3ccccc43)[nH]c2c(OC)c1OC	TGI	0.0067
COc1ccc(N2C(=O)[C@H]3CC(C)c4c([nH]c5ccccc45)[C@H]3C2=O)cc1 (stereo not given in full)	TGI	41.9

Now examine the next entry.
[ask] Requested read-out: TGI. Entry: CC[PH+](CC)CC.O=COC1OC([S-])C(OC=O)C(OC=O)C1OC=O.[Au+] (stereo not given)
[reply] 3.69

====

# Test system: MDA-MB-435
# assay explanation: NCI tumour cell line growth inhibition, 48 h
// reported TGI for each item listed

A selection of reference data follows.
compound	result
Cc1[nH]c(=O)nc(NCCNCCO)c1C(=O)Nc1cccc2cc3ccccc3cc12	> 100 µM
COc1cc(CC(C)NC(C)=O)cc(OC)c1 (stereo unspecified)	> 100 µM
NC(=O)c1cc2c3ccccc3ccn2c1-c1ccccc1	> 100 µM

[ask] Name the reported TGI value associated with the compound Cc1cc2ncn(C3CCCCO3)c2cc1C (stereo unspecified)
[reply] > 100 µM

[ask] Need TGI of CCC(CO)Nc1nc(NCc2ccccc2)c2ncn(C(C)C)c2n1 (stereo unspecified) , thanks.
[reply] > 68.1 µM

[ask] Item C=C1OC(c2ccccc2NC)=NC12CCCCC2 has what recorded TGI?
[reply] > 100 µM

====

# maps each entry to its TGI
# System: OVCAR-4 ovarian
# assay explanation: NCI tumour cell line growth inhibition, 48 h

Example results:
molecule	TGI
O=S(=O)(O)c1ccc(N=Nc2ccc(N=Nc3ccc(/C=C/c4ccc(N=[N+]([O-])c5ccc(/C=C/c6ccc(N=Nc7ccc(N=Nc8ccc(S(=O)(=O)O)cc8)cc7)cc6S(=O)(=O)O)c(S(=O)(=O)O)c5)cc4S(=O)(=O)O)c(S(=O)(=O)O)c3)cc2)cc1	> 100 µM
C/C=C(/C)C(=O)OC1CC(C)[C@H]2CC(=O)C(C)=C2CC1C(C)(C)OC(C)=O (some centres not stated)	68 µM
CS(=O)(=O)Nc1ccc2c(c1)N(S(C)(=O)=O)CC2CCl (configuration not stated)	> 100 µM
Cc1cc2c(cc1Cl)SC1=NN(C)C(N(C)C)N1S2(=O)=O (configuration not stated)	> 100 µM

[ask] What does the data say about its TGI? Entry: CCCCOc1ccc(OCCCCCCCCCC[N+](C)(C)C)cc1
[reply] 14.8 µM

[ask] Please report the recorded TGI for O=C1N=C2SC(=S)NC(=S)N2NC12c1ccccc1-c1ccccc12 .
[reply] > 10 µM

[ask] Which TGI is listed for COc1ccc2nc(/C(N)=C\C#N)ccc2c1 ?
[reply] > 100 µM

[ask] I'd like to know its TGI. The molecule in question is Cc1cccc(-n2c(=S)[nH]c3c(sc(=O)n3-c3ccccc3C)c2=O)c1
[reply] > 100 µM

[ask] I have this molecule here, OCCOCn1nncc1Cn1ncc2c(SCc3ccccc3)ncnc21 , and I need its recorded TGI.
[reply] > 100 µM

[ask] Quick check: TGI of CS(=O)(=O)CSCSSCS(C)(=O)=O ?
[reply] > 100 µM

[ask] # query: TGI of entry C[C@]12CCC(=O)[C@@H](CCC3=CC(=O)C=CC3=O)[C@@H]1CCC2=O
[reply] 53.2 µM

[ask] Return reported TGI; argument: CCC[n+]1cc2cc(OC)c(OC)cc2c2c1-c1cc3c(cc1C2)OCO3
[reply] 19.2 µM

[ask] Entry CCC(O)(Cc1ccc(OC)cc1)c1ccc(OC)cc1 (configuration not stated) : reported TGI = ?
[reply] > 100 µM

[ask] Tell me the measured TGI of COc1ccc(-c2oc3c(OC)c(OC)c(OC)c(OC)c3c(=O)c2OC)cc1OC , please.
[reply] > 100 µM

[ask] Look at this molecule and give its reported TGI. CC(=O)OCC1OC(n2c(-c3ccccc3)c(N=Nc3ccccc3)c(C)c(C#N)c2=S)C(OC(C)=O)C(OC(C)=O)C1OC(C)=O (configuration not stated)
[reply] > 100 µM

[ask] Entry CC(C)C(=O)C(C)(C)CCc1ccccn1 : reported TGI = ?
[reply] > 100 µM

[ask] What measured TGI goes with CCOC(=O)/C=C/C1=C(c2cccs2)c2ccccc2CC1 ?
[reply] > 100 µM

[ask] Need TGI, item C/C(Cl)=N\OC(=O)Nc1ccc(C)cc1
[reply] 32.9 µM

[ask] Quick check: TGI of CCOc1cc(/C=N\Nc2nnc(C)n2N)c(C)cc1N(CCCl)CCCl ?
[reply] > 68.2 µM
